Measured INHIBITION by item
# System: Plasmodium falciparum
# assay-info: Screen against P. falciparum Asexual Blood Stage (ABS), at 5uM
# Format: functional, Dd2
# condition-set: tested at 5 uM
The whole screen tested about 65,000 compounds, of which about 2,100 (3.2%) showed an effect of 50% or more. The median lay at about -52%. The full list was thinned out, with strong results kept by preference.
readout-type: INHIBITION (%)

# compound, experimental-target, numeric-readout
rows = [
    ("CN1CCN(C[C@@H]2OC[C@H]3CN(Cc4cccc(F)c4)CC[C@H]32)CC1", "Plasmodium falciparum", 19.2),
    ("CC(=O)c1c(C)nn(CC(=O)N2CCCC2c2ccc(C(N)=O)s2)c1C (configuration not stated)", "Plasmodium falciparum", -149),
    ("O=C(Cc1ccsc1)N1C[C@H]2CCC[C@@]2(COCc2ccccn2)C1", "Plasmodium falciparum", -116),
    ("Cc1nc(N2CCOCC2)nc2c1CCN(Cc1ccsc1)CC2", "Plasmodium falciparum", -79.9),
    ("Cc1cc(C)cc(OCCN(C)C2CCOC2=O)c1 (configuration not stated)", "Plasmodium falciparum", -68.2),
    ("COc1cccc(-c2cccc(CN3C[C@H]4CC[C@@H](C3)N(C)C4=O)c2)c1", "Plasmodium falciparum", 13.1),
    ("Cc1noc(C)c1C(=O)N1CCCC(c2c(C)c(=O)nc3n2CCC3)C1 (configuration not stated)", "Plasmodium falciparum", -105),
    ("CC(C)Oc1ccccc1-c1cc(CN)ccc1F", "Plasmodium falciparum", 60.3),
    ("CCC(C)n1c(SCC(=O)N2CCOCC2)nc2cc(C)[nH]c2c1=O (configuration not stated)", "Plasmodium falciparum", -77),
    ("OC(CNCCn1cccn1)c1ccc(Br)cc1 (configuration not stated)", "Plasmodium falciparum", -6.84),
    ("CS(=O)(=O)CCC(=O)Nc1nccn1Cc1ccccc1Cl", "Plasmodium falciparum", -70.9),
    ("CCC(C)c1noc(C2CCN(C(=O)c3ccccn3)CC2)n1 (configuration not stated)", "Plasmodium falciparum", -122),
    ("CCc1cc(N2CCC3(CCCNC3=O)C2)nc(N2CCOCC2)n1 (configuration not stated)", "Plasmodium falciparum", -56.1),
    ("COc1ccc(CN2CCCC2c2cccc(F)c2)c(OC)c1OC (configuration not stated)", "Plasmodium falciparum", 60.2),
    ("CCn1ccnc1CN1CCCN(C(=O)c2ccnc(C)n2)CC1", "Plasmodium falciparum", -61.7),
    ("Cc1ccc(S(=O)(=O)c2ncccc2CN2CCN(C)CC2)cc1", "Plasmodium falciparum", 24.6),
    ("Cc1ccc(NC2CCN(C(=O)c3sccc3C3CC3)CC2)nn1", "Plasmodium falciparum", -28.9),
    ("C[C@@H]1CN(C(=O)c2nc3ccc(Cl)cn3c2-c2ncc[nH]2)C[C@H](C)O1", "Plasmodium falciparum", 49.4),
    ("CCc1nc(NCCCn2cccn2)c2c(n1)c(C)nn2CC", "Plasmodium falciparum", -75.8),
    ("CC(c1ccc(F)cc1F)N1CCN(CCC(=O)O)CC1 (configuration not stated)", "Plasmodium falciparum", -11.3),
    ("CN1CCOC(CNCc2csc(C3CCCC3)n2)C1 (configuration not stated)", "Plasmodium falciparum", -14.3),
    ("Cc1nc(CN2CCCN(C(=O)c3cccnc3O)CC2)cs1", "Plasmodium falciparum", 49.4),
    ("CC(c1ccc(F)cc1F)N1CCN(CCC(=O)NC(N)=O)CC1 (configuration not stated)", "Plasmodium falciparum", 64),
    ("COc1cccc(Cl)c1-c1cc(CN)ccc1F", "Plasmodium falciparum", 65.3),
    ("O=C(c1ccsc1)N1C[C@@H]2OCCN(CCN3CCCC3)[C@@H]2C1", "Plasmodium falciparum", -116),
    ("Cc1ccc(CN2CC[C@@H]3[C@@H](CO[C@H]3CN3CCN(C)CC3)C2)cc1", "Plasmodium falciparum", -1.6),
    ("CC1=NN(CC(=O)N2CC[C@@H]3[C@@H](CCC(=O)N3CC(C)C)C2)CC1", "Plasmodium falciparum", -127),
    ("Cc1ccc(NC2CCN(C(=O)c3cccc4[nH]ncc34)CC2)nn1", "Plasmodium falciparum", -12.4),
    ("CCS(=O)(=O)NC(CCSC)C(=O)Nc1cc(F)ccc1C (configuration not stated)", "Plasmodium falciparum", -26.6),
    ("COc1ccc(-c2cc(CN)ccc2F)c(OC)c1OC", "Plasmodium falciparum", 13.4),
    ("c1ccc(-n2cc(CN3CCCC3Cn3cncn3)nn2)cc1 (configuration not stated)", "Plasmodium falciparum", -14),
    ("COc1cccc(CN2CCCCCC2c2cccs2)c1OC (configuration not stated)", "Plasmodium falciparum", -70.3),
    ("Fc1ccc(CC2CCN(Cc3cscn3)CC2)cc1", "Plasmodium falciparum", 50.7),
    ("CCc1ccc(C2CC(=O)Nc3c2c(=O)[nH]n3C(C)C)cc1 (configuration not stated)", "Plasmodium falciparum", -113),
    ("Cn1cc(N2CC3(CCN(Cc4ccsc4)CC3)OCC2=O)cn1", "Plasmodium falciparum", -22.1),
    ("Cc1cccc(CNCC2(O)CCCN(CC3CCCCC3)C2=O)n1 (configuration not stated)", "Plasmodium falciparum", -3.18),
    ("COc1ccc(CN2C[C@@H]3OCCN(CC4CCCO4)[C@@H]3C2)cc1 (some centres not stated)", "Plasmodium falciparum", -115),
    ("O=C(NC1CC1)N1CCc2ccc(=O)n(CCN3CCCC3)c2CC1", "Plasmodium falciparum", -113),
    ("COc1ccc(CN2C[C@@H]3OCCN(CCN(C)C)[C@@H]3C2)cc1", "Plasmodium falciparum", 66.9),
    ("c1ccc(CN2CCCn3nnc(Cn4cccc4)c3C2)nc1", "Plasmodium falciparum", -33.7),
    ("CC(C)Oc1ccc(CNC(=O)NCc2ccncc2)cc1F", "Plasmodium falciparum", -9.03),
    ("CC(SCCC(=O)NC(N)=O)c1ccc(F)cc1F (configuration not stated)", "Plasmodium falciparum", -47),
    ("COCCN1CCC(c2nc3ccc(N4CCCC4)cn3n2)CC1", "Plasmodium falciparum", -45.6),
    ("CCn1cc(CN2CCN(Cc3cccc(OC)c3)C(=O)C2)cc1C#N", "Plasmodium falciparum", 47.9),
    ("Cc1cc(C)cc(CN2CCN(Cc3cc(C#N)n(C)c3)CC2=O)c1", "Plasmodium falciparum", 18.4),
    ("CNC(=O)c1ccc(CN2CCN(C3=NCC(C)(C)S3)CC2)cc1", "Plasmodium falciparum", -92),
    ("COc1cc(CN2CCCC2c2cccc(F)c2)cc(OC)c1OC (configuration not stated)", "Plasmodium falciparum", 28.2),
]

---

# System: Plasmodium falciparum
# assay-info: Screen against P. falciparum Asexual Blood Stage (ABS), at 5uM
# Type: functional, Dd2
# condition-set: tested at 5 uM
Screen size: about 65,000 compounds; about 2,100 (3.2%) showed an effect of 50% or more. The median lay at about -52%. The full list was thinned out, with strong results kept by preference.
readout-type: INHIBITION (%)

# molecule, readout-type, readout-units, numeric-readout
records = [
    ("O=C(Cn1cccn1)Nc1ccc(N2CCOCC2)cc1", "INHIBITION", "%", -6.33),
    ("Cc1cccc(C(=O)N2CC[C@@H]3[C@H]2CCC(=O)N3c2ccccc2)n1", "INHIBITION", "%", -87),
    ("FC1(F)CCN(Cc2ccncc2)CC12CCN(c1cccnc1)C2 (stereo unspecified)", "INHIBITION", "%", 19.1),
    ("FC1(F)CCN(c2ccccc2)CC12CCN(c1ncccn1)C2 (stereo unspecified)", "INHIBITION", "%", -145),
    ("Cn1ccnc1CN1CCC(F)(F)C2(CCN(c3cccnc3)C2)C1 (stereo unspecified)", "INHIBITION", "%", 60.4),
    ("O=C(O)CN1CCC(F)(F)C2(CCN(c3ccccc3)C2)C1 (stereo unspecified)", "INHIBITION", "%", 67.6),
]

---

# System: Plasmodium falciparum
# assay-info: Screen against P. falciparum Asexual Blood Stage (ABS), at 5uM
# Format: functional, Dd2
# condition-set: tested at 5 uM
Screen size: about 65,000 compounds; about 2,100 (3.2%) showed an effect of 50% or more. The median lay at about -52%. The full list was thinned out, with strong results kept by preference.
Rule: INHIBITION under -70% gives No, otherwise Yes.

# compound, label-value
measured = [
    ("COc1ccc(CN2C[C@@H]3OCCN(C)[C@@H]3C2)cc1", "Yes"),
    ("Fc1ccc(CN2C[C@@H]3OCCN(CC4CCCO4)[C@@H]3C2)cc1 (stereo not given in full)", "Yes"),
    ("Cc1noc(C)c1CN1CCO[C@H]2CN(Cc3cccc(F)c3)C[C@H]21", "Yes"),
    ("CN(C)CCN1CCO[C@H]2CN(Cc3cnn(C)c3)C[C@H]21", "No"),
]
